Target: hURAT1 (Homo sapiens, UniProt Q96S37)
Sequence (Q96S37 1-553): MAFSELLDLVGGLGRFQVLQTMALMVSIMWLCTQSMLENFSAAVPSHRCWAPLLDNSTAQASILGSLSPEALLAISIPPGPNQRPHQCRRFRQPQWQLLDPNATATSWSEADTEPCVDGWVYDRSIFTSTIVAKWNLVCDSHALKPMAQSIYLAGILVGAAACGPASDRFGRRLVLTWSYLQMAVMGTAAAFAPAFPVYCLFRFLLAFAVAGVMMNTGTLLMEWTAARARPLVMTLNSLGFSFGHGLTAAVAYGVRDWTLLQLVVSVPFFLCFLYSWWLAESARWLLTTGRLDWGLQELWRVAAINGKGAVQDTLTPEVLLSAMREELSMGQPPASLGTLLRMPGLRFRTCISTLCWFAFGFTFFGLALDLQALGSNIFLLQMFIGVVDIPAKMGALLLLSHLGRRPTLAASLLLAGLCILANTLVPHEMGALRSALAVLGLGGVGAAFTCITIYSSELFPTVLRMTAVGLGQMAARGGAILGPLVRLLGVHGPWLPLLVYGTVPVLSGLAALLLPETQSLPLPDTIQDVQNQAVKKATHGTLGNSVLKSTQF
Test: Inhibitory activity against URAT1: 14C-labelled uric acid uptake in HEK-293t cells stably expressing hURAT1
Type: cell-based
Details: HEK-293t/hURAT1 cells, 14C uric acid uptake, 5 minutes at room temperature; Ref Cpd 2, 83, Ref Cpd 3 and 129 are averages of head-to-head tests; read-out: IC50 (nM) of hURAT1 inhibitory activity
assay.readout: IC50 (nM)

Below are worked cases with known answers.
CCC(CC)(Sc1ccnc2ccc(Br)cc12)C(=O)O = 70.6
CC(C)(Sc1ccnc2ccc(C3CC3)cc12)C(=O)O = 486
CCC(CC)(Sc1ccnc2ccc(-c3cccc(OC4CCC4)c3)cc12)C(=O)O = 267

A. CCC(CC)(Sc1ccnc2ccccc12)C(=O)O
B. CC(C)C(Sc1ccnc2ccc(Br)cc12)C(=O)O (stereo not shown)
C. CC(C)(Sc1ccnc2ccc(-c3cccc(OC(F)(F)F)c3)cc12)C(=O)O
D. CCCC(CCC)(Sc1ccnc2ccc(-c3cccc(OC4CCC4)c3)cc12)C(=O)O
[Q] # desc sort on IC50 across 4 compounds Reply format: the labels, ordered as requested.
[A] B, D, C, A

====

Biological target: hURAT1 (Homo sapiens, UniProt Q96S37)
Sequence (Q96S37 1-553): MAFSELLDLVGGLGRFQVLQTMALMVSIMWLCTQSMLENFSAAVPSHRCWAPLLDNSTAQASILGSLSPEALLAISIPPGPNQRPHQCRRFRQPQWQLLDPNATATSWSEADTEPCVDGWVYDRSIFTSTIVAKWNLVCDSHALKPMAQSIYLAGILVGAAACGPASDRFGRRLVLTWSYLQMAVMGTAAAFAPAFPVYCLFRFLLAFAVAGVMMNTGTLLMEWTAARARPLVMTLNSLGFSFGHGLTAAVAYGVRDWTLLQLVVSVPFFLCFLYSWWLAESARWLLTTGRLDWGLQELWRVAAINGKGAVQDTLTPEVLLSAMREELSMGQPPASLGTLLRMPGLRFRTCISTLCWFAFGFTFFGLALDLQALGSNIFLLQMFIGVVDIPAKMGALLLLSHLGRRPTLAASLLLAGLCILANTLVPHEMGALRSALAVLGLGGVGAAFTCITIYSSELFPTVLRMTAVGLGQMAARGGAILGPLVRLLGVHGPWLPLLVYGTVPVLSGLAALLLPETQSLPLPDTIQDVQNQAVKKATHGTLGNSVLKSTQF
Assay: Inhibitory activity against URAT1: 14C-labelled uric acid uptake in HEK-293t cells stably expressing hURAT1
Format: cell-based
Conditions: HEK-293t/hURAT1 cells, 14C uric acid uptake, 5 minutes at room temperature; Ref Cpd 2, 83, Ref Cpd 3 and 129 are averages of head-to-head tests; read-out: IC50 (nM) of hURAT1 inhibitory activity
assay.readout: IC50 (nM)

CC(C)(Sc1ccnc2ccc(-c3ccccc3F)cc12)C(=O)O = 812

P. CCC(CC)(Sc1ccnc2ccc(-c3ccnc(OC)c3)cc12)C(=O)O
Q. CCCC(CCC)(Sc1ccnc2ccc(Br)cc12)C(=O)O
R. CCCC(CCC)(Sc1ccnc2ccc(-c3cccc(OC4CC4)c3)cc12)C(=O)O
S. CCC(CC)(Sc1ccnc2ccc(-c3ccnc(C)c3)cc12)C(=O)O
[Q] Let's sort these by IC50, smallest first. Go ahead? Could you list the labels in the order requested?
[A] P, Q, S, R

====

Target: hURAT1 (Homo sapiens, UniProt Q96S37)
Test: Inhibitory activity against URAT1: 14C-labelled uric acid uptake in HEK-293t cells stably expressing hURAT1
Format: cell-based
Details: average of the multiple head-to-head comparison tests, Table 2; read-out: Average (IC50 of multiple determinations)
pIC50: −log10 of the molar value.
assay.readout: pIC50

A. O=C(O)C1(Sc2ccnc3ccc(Br)cc23)CCC1 [Ref Cpd 2, reference compound]
B. CCC(CC)(Sc1ccnc2ccc(Br)cc12)C(=O)O
[Q] Short answer wanted: higher pIC50, A or B ? Answer by quoting the chosen item's label.
[A] B

====

Target: hURAT1 (Homo sapiens, UniProt Q96S37)
Test: Inhibitory activity against URAT1: 14C-labelled uric acid uptake in HEK-293t cells stably expressing hURAT1
Format: cell-based
Settings: HEK-293t/hURAT1 cells, 14C uric acid uptake, 5 minutes at room temperature; Ref Cpd 2, 83, Ref Cpd 3 and 129 are averages of head-to-head tests; read-out: IC50 (nM) of hURAT1 inhibitory activity
assay.readout: IC50 (nM)

Answered cases to consult:
CCC(CC)(Sc1ccnc2ccc(-c3cccc(OC4CC4)c3)cc12)C(=O)O [Compound 112] = 147
CCCC(CCC)(Sc1ccnc2ccc(-c3cccc(OCC)c3)cc12)C(=O)O [Compound 108] = 523
CC(C)(Sc1ccnc2ccc(-c3ccc(C(F)(F)F)cc3)cc12)C(=O)O [Compound 34] = 4600

I. CC(C)(Sc1ccnc2ccc(C(F)(F)F)cc12)C(=O)O [Compound 96]
II. CCC(Sc1ccnc2ccc(Br)cc12)C(=O)O (stereo not shown) [Compound 24]
III. COc1cc(-c2ccc3nccc(SC(C)(C)C(=O)O)c3c2)ccn1 [Compound 115]
IV. CC(C)(Sc1ccnc2ccccc12)C(=O)O [Compound 93]
[Q] Order the 4 compounds from highest to lowest IC50. Give your ranking as a list of the labels in the requested order.
[A] II, IV, I, III

====

Molecular target: hURAT1 (Homo sapiens)
Sequence (Q96S37 1-553): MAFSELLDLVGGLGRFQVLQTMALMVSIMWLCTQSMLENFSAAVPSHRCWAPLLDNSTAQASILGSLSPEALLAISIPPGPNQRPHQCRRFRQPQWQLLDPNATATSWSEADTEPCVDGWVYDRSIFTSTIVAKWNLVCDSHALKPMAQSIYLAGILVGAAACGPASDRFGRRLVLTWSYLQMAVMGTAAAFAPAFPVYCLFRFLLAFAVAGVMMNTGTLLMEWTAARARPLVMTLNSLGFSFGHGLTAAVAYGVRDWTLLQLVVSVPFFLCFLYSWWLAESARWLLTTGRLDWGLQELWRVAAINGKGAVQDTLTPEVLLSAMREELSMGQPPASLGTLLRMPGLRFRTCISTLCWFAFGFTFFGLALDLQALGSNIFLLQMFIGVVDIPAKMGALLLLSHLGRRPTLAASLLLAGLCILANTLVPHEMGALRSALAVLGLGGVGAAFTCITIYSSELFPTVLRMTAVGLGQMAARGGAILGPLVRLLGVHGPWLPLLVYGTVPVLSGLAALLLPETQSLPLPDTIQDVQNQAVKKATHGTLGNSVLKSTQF
Test: Inhibitory activity against URAT1: 14C-labelled uric acid uptake in HEK-293t cells stably expressing hURAT1
Format: cell-based
Conditions: HEK-293t/hURAT1 cells, 14C uric acid uptake, 5 minutes at room temperature; Ref Cpd 2, 83, Ref Cpd 3 and 129 are averages of head-to-head tests; read-out: IC50 (nM) of hURAT1 inhibitory activity
assay.readout: IC50 (nM)

// worked examples, IC50 included
CC(C)(Sc1ccnc2ccc(-c3cccnc3)cc12)C(=O)O [Compound 3] = 514
O=C(O)C1(Sc2ccnc3ccc(Br)cc23)CCC1 [Ref Cpd 2, reference compound] = 138
CC(C)Oc1cccc(-c2ccc3nccc(SC(C)(C)C(=O)O)c3c2)c1 [Compound 103] = 37

1. COc1cccc(-c2ccc3nccc(SC(C)(C)C(=O)O)c3c2)c1 [Compound 20]
2. COc1ccc(-c2ccc3nccc(SC(C)(C)C(=O)O)c3c2)cc1 [Compound 21]
3. CCOc1cccc(-c2ccc3nccc(SC(C)(C)C(=O)O)c3c2)c1 [Compound 102]
4. CC(C)(Sc1ccnc2ccc(-c3ccc(C#N)cc3)cc12)C(=O)O [Compound 100]
5. O=C(O)C1(Sc2ccnc3ccccc23)CCC1 [Ref Cpd 3, reference compound]
[Q] List by increasing IC50. Quick reminder: the answer is the labels in the order asked.
[A] 1, 3, 5, 2, 4
(1: 21 nM, 3: 32 nM, 5: 794 nM, 2: 1900 nM, 4: 8140 nM)

These data points were gathered from patent US10450274B2.
